Parameter surface tension liquid-gas: see the listing below.
condition_context: 338.15 K, Ring tensiometer
Give the quantity in mN/m, number only.

Completed entries (count: 3):
compound | surface tension liquid-gas (mN/m)
O [water] | 65
CCCCn1cc[n+](C)c1.F[B-](F)(F)F [1-butyl-3-methylimidazolium tetrafluoroborate] | 41.55
CCn1cc[n+](C)c1.F[B-](F)(F)F [1-ethyl-3-methylimidazolium tetrafluoroborate] | 50.45

Field surface tension liquid-gas (entry CCCCCCn1cc[n+](C)c1.F[B-](F)(F)F [1-hexyl-3-methylimidazolium tetrafluoroborate] ) reads 34.52

###

condition_context: 328.15 K, Ring tensiometer
Parameter surface tension liquid-gas: see the listing below.
Give the quantity in mN/m, number only.

Field surface tension liquid-gas (entry CCn1cc[n+](C)c1.F[B-](F)(F)F [1-ethyl-3-methylimidazolium tetrafluoroborate] ) reads 50.85

Field surface tension liquid-gas (entry CCCCn1cc[n+](C)c1.F[B-](F)(F)F [1-butyl-3-methylimidazolium tetrafluoroborate] ) reads 42.25

Field surface tension liquid-gas (entry CCCCCCn1cc[n+](C)c1.F[B-](F)(F)F [1-hexyl-3-methylimidazolium tetrafluoroborate] ) reads 35.22

Field surface tension liquid-gas (entry O [water] ) reads 66.7

###

Parameter surface tension liquid-gas: see the listing below.
condition_context: 298.15 K, Ring tensiometer
Give the quantity in mN/m, number only.

Completed entries (count: 3):
compound | value_units | reported_result
CCCCn1cc[n+](C)c1.F[B-](F)(F)F [1-butyl-3-methylimidazolium tetrafluoroborate] | mN/m | 44.6
CCCCCCn1cc[n+](C)c1.F[B-](F)(F)F [1-hexyl-3-methylimidazolium tetrafluoroborate] | mN/m | 37.22
CCn1cc[n+](C)c1.F[B-](F)(F)F [1-ethyl-3-methylimidazolium tetrafluoroborate] | mN/m | 52.05

With those in mind, consider the next compound.
Field surface tension liquid-gas (entry O [water] ) reads 71.8

###

condition_context: 308.15 K, Ring tensiometer
measured_attribute: surface tension liquid-gas (mN/m)
Give the quantity in mN/m, number only.

compound | value_units | surface tension liquid-gas
CCCCCCn1cc[n+](C)c1.F[B-](F)(F)F [1-hexyl-3-methylimidazolium tetrafluoroborate] | mN/m | 36.62
O [water] | mN/m | 70.1
CCCCn1cc[n+](C)c1.F[B-](F)(F)F [1-butyl-3-methylimidazolium tetrafluoroborate] | mN/m | 43.65

Field surface tension liquid-gas (entry CCn1cc[n+](C)c1.F[B-](F)(F)F [1-ethyl-3-methylimidazolium tetrafluoroborate] ) reads 51.65
